# System: HEK-293T
# assay text: Incucyte cell viability with HEK293T; also: unitless GR value; below 1 slowed growth and below 0 cell loss
# Format: toxicity, cell-based
# conditions: human, 12 h, 10 µM, compound concentration 10 uM, replicate number 2
reported property: Growth Rate
The answer should be a number; do not append a unit.

Examples with answers:
compound="CN(C)C(=O)c1cc2cnc(Nc3ccc(N4CCN(CCCCNC(=O)COc5cccc6c5C(=O)N(C5CCC(=O)NC5=O)C6=O)CC4)cn3)nc2n1C1CCCC1 (stereo not given)" numeric_value=0.81
compound=CCCCC/C=C/C=C1/C(=O)C=C[C@@H]1C/C=C\CCCC(=O)O numeric_value=0.95
compound=CC[C@@H]1C(=O)N(C)c2cnc(Nc3ccc(C(=O)NC4CCN(C)CC4)cc3OC)nc2N1C1CCCC1 numeric_value=0.08

What does the record list as Growth Rate for CC(=O)c1c(C)c2cnc(Nc3ccc(N4CCN(CCCCNC(=O)COc5cccc6c5C(=O)N(C5CCC(=O)NC5=O)C6=O)CC4)cn3)nc2n(C2CCCC2)c1=O (stereo not given) ?
0.85

====

# Test system: U2OS
# assay text: Incucyte cell viability with U2OS; also: unitless GR value; below 1 slowed growth and below 0 cell loss
# Type: toxicity, cell-based
# conditions: human, 18 h, 10 µM, compound concentration 10 uM, replicate number 2
With a cut-off of 0.7, any Growth Rate strictly below it is called Condition met; any Growth Rate meeting it or above is called Condition not met.

Use these answered entries as a reference point.
structure=CSc1nc2c(c(=O)n(C)c(=O)n2C)n1C category_label="Condition not met"
structure=CCOP(=O)(OCC)C(=Cc1cc(C(C)(C)C)c(O)c(C(C)(C)C)c1)P(=O)(OCC)OCC category_label="Condition not met"
structure=CCN1CCN(Cc2ccc(NC(=O)c3ccc(C)c(NC(=O)c4cncc(-c5cccs5)c4)c3)cc2C(F)(F)F)CC1 category_label="Condition met"
structure=CC(=O)O[C@H]1C(=O)[C@@]2(C)[C@H]([C@H](OC(=O)c3ccccc3)[C@]3(O)C[C@H](OC(=O)[C@H](O)[C@@H](NC(=O)c4ccccc4)c4ccccc4)C(C)=C1C3(C)C)[C@]1(OC(C)=O)CO[C@@H]1C[C@@H]2O category_label="Condition met"
structure=CN(C)[C@H]1C[C@H](n2cnc(-c3ccc(F)cn3)c2-c2ccnc3[nH]ccc23)C1 category_label="Condition not met"

Would you kindly verify if Growth Rate of "CN(C)c1ccc(-c2cc3ncccc3c(OCCCCO)n2)cc1.O=C(O)C(F)(F)F" is strictly less than 0.7?
Condition met

Would you kindly verify if Growth Rate of "CN1C(=O)c2ccccc2N(C)c2nc(Nc3cnn(C4CCNCC4)c3)ncc21" is strictly less than 0.7?
Condition met

Would you kindly verify if Growth Rate of "CCCNc1ccc2ncc(-c3ccncc3)n2n1" is strictly less than 0.7?
Condition met

====

# Tested on: Fibroblast
# assay text: Incucyte cell viability with human fibroblast; also: unitless GR value; below 1 slowed growth and below 0 cell loss
# Assay type: toxicity, cell-based
# conditions: 24 h, 10 µM, compound concentration 10 uM, replicate number 2
Growth Rate by entry:
The answer should be a number; do not append a unit.

Examples with answers:
compound=COc1ccc(CCCN2CCC(COC(c3ccccc3)c3ccccc3)CC2)cc1.Cl test_target=Fibroblast numeric_value=-0.23
compound=Cc1cc(O)c(-c2ccc([C@@H](C)CN(C)C)cc2)c2c1[nH]c(=O)c1sccc12 test_target=Fibroblast numeric_value=-0.3

What does the record list as Growth Rate for Cn1c2ccccc2c2c3c(c4c5ccccc5n(CCC#N)c4c21)CNC3=O [GO-6976] ?
0.48

What does the record list as Growth Rate for CCCCc1oc2ccccc2c1C(=O)c1cc(I)c(OCCN(CC)CC)c(I)c1.Cl [AMIODARONE HYDROCHLORIDE] ?
-0.43

What does the record list as Growth Rate for "CS(=O)(=O)c1ccc(-c2cnc(N)c(C(=O)Nc3ccccc3)n2)cc1" ?
0.74

What does the record list as Growth Rate for "CCCS(=O)(=O)Nc1ccc(F)c(Nc2ncnc3cnc(-n4cnc(C)c4)nc23)c1F" ?
0.77

What does the record list as Growth Rate for "COc1cc(-c2cc3ncccc3c(OC[C@H]3CNC(=O)C3)n2)cc(OC)c1OC1CCOCC1.O=C(O)C(F)(F)F" ?
0.94

What does the record list as Growth Rate for "CN1CCN(c2ccc(/C=C(\C#N)c3ccccc3Br)cc2)CC1.Cl.Cl" ?
-0.21

What does the record list as Growth Rate for "CC(C)NC(=O)[C@H]1CCC[C@H]1Nc1nc(Nc2ccc(C(=O)N(C)C3CCN(C)CC3)cc2)ncc1Cl" ?
0.47

What does the record list as Growth Rate for "O=C(NCc1ccc(F)cc1)C1CCN(S(=O)(=O)c2cc(Cl)cc(Cl)c2)CC1" ?
0.67
